Origin of values: patent US8415351B2

Test system: genotype 1a-H77 subgenomic replicon cell line
Test: microbe, parasite or virus in culture
Assay type: cell-based, HCV
Conditions: Hepatitis C virus, read-out: EC50 1a
pEC50: −log10 of the molar value.
observationType: pEC50

>>> datavalue("COc1c(/C=C/c2ccc(NS(C)(=O)=O)cc2C(=O)N2CCOCC2)cc(-n2ccc(=O)[nH]c2=O)cc1C(C)(C)C")
"6.00 to 7.00"
>>> datavalue("COc1c(-c2ccc3ccccc3c2)cc(-n2ccc(=O)[nH]c2=O)cc1C(C)(C)C")
"< 6.00"
>>> datavalue("COc1c(-c2nc3cc([N+](=O)[O-])ccc3o2)cc(N2CCC(=O)NC2=O)cc1C(C)(C)C")
"< 6.00"
>>> datavalue("COc1c(/C=C/c2ccc(NS(C)(=O)=O)cc2-c2ncc[nH]2)cc(-n2ccc(=O)[nH]c2=O)cc1C(C)(C)C")
"6.00 to 7.00"
>>> datavalue("COc1c(-c2cccc(Cl)c2)cc(-n2ccc(=O)[nH]c2=O)cc1-c1ccc2cc(NS(C)(=O)=O)ccc2c1")
"< 6.00"
>>> datavalue("COc1c(C(=O)Nc2ccc3c(c2)CC(=O)N3)cc(N2CCC(=O)NC2=O)cc1C(C)(C)C")
"< 6.00"
>>> datavalue("COc1c(/C=C/c2ccc(NS(C)(=O)=O)cc2NC(=O)OC(C)(C)C)cc(-n2ccc(=O)[nH]c2=O)cc1C(C)(C)C")
"6.00 to 7.00"
>>> datavalue("CC(C)(C)c1cc(N2CCC(=O)NC2=O)cc(C(=O)Nc2scc(CNS(C)(=O)=O)c2S(N)(=O)=O)c1O")
"6.00 to 7.00"

---

Test system: genotype 1a-H77 subgenomic replicon cell line
Test: microbe, parasite or virus in culture
Format: cell-based, HCV
Settings: Hepatitis C virus, read-out: EC50 1a
observationType: EC50

>>> datavalue("COc1c(-c2ccc3c(c2)CC[C@@H]3C(C)(C)NS(C)(=O)=O)cc(-n2ccc(=O)[nH]c2=O)cc1C(C)(C)C (single isomer, unassigned) [IB-L0-2.22]")
"100 to 1000 nM"
>>> datavalue("COc1c(Br)cc(-n2ccc(=O)[nH]c2=O)cc1/C=C/c1ccc(NS(C)(=O)=O)cc1 [IB-L1-1.52]")
"> 1000 nM"
>>> datavalue("COc1c(I)cc(-n2ccc(=O)[nH]c2=O)cc1C#Cc1ccc(NS(C)(=O)=O)cc1C [IB-L2-1.15]")
"> 1000 nM"
>>> datavalue("COc1c(-c2ccc3cc(NS(C)(=O)=O)ccc3c2)cc(-n2ccc(=O)[nH]c2=O)cc1C(C)(C)C [IB-L0-2.3]")
"< 10 nM"
>>> datavalue("COc1c(-c2ccc(NC(=O)NS(C)(=O)=O)cc2)cc(-n2ccc(=O)[nH]c2=O)cc1C(C)(C)C [IB-L0-1.7]")
"> 1000 nM"
>>> datavalue("CNC(=O)c1cc(NS(C)(=O)=O)ccc1/C=C/c1cc(-n2ccc(=O)[nH]c2=O)cc(C(C)(C)C)c1OC [IB-L1-1.17]")
"10 to 100 nM"

---

System: genotype 1a-H77 subgenomic replicon cell line
Assay: microbe, parasite or virus in culture
Type: cell-based, HCV
Settings: Hepatitis C virus, read-out: EC50 1a
observationType: EC50

>>> datavalue("COc1c(-c2ccc(/C=N/NS(C)(=O)=O)cc2)cc(-n2ccc(=O)[nH]c2=O)cc1C(C)(C)C")
"10 to 100 nM"
>>> datavalue("COc1c(-c2ccc3nc(NS(C)(=O)=O)sc3c2)cc(-n2ccc(=O)[nH]c2=O)cc1C(C)(C)C")
"> 1000 nM"
>>> datavalue("COc1ccc(-c2cc(-n3ccc(=O)[nH]c3=O)cc(C(C)(C)C)c2OC)cc1/C=N/NS(C)(=O)=O")
"> 1000 nM"
>>> datavalue("COc1c(-c2ccc3c(c2)CC=C3CNS(C)(=O)=O)cc(-n2ccc(=O)[nH]c2=O)cc1C(C)(C)C")
"10 to 100 nM"
>>> datavalue("CC(C)(C)c1cc(-c2ccc3c(c2)CC/C3=N\\NS(C)(=O)=O)cc(-n2ccc(=O)[nH]c2=O)c1")
"100 to 1000 nM"
>>> datavalue("COc1c(-c2ccc3c(c2)CCN(NS(C)(=O)=O)C3)cc(-n2ccc(=O)[nH]c2=O)cc1C(C)(C)C")
"> 1000 nM"
>>> datavalue("COCCN(C)C(=O)c1cc(NS(C)(=O)=O)ccc1/C=C/c1cc(-n2ccc(=O)[nH]c2=O)cc(C(C)(C)C)c1OC")
"10 to 100 nM"
>>> datavalue("COc1c(C(=O)Nc2ccccc2)cc(N2CCC(=O)NC2=O)cc1C(C)(C)C")
"> 1000 nM"
>>> datavalue("COc1c(C(=O)Nc2ccc(CC(=O)O)cc2)cc(N2CCC(=O)NC2=O)cc1C(C)(C)C")
"> 1000 nM"
>>> datavalue("COc1c(/C=C(\\Cl)c2ccc(NS(C)(=O)=O)cc2)cc(N2CCC(=O)NC2=O)cc1C(C)(C)C")
"10 to 100 nM"
>>> datavalue("COc1c(/C=C/c2ccc(N)cc2)cc(N2CCC(=O)NC2=O)cc1C(C)(C)C")
"> 1000 nM"
>>> datavalue("COc1c(NC(=O)c2ccc(NS(C)(=O)=O)cc2Cl)cc(N2CCC(=O)NC2=O)cc1C(C)(C)C")
"100 to 1000 nM"
